# Tested On: IDO (Homo sapiens (Human))
# Sequence (P14902 whole entry): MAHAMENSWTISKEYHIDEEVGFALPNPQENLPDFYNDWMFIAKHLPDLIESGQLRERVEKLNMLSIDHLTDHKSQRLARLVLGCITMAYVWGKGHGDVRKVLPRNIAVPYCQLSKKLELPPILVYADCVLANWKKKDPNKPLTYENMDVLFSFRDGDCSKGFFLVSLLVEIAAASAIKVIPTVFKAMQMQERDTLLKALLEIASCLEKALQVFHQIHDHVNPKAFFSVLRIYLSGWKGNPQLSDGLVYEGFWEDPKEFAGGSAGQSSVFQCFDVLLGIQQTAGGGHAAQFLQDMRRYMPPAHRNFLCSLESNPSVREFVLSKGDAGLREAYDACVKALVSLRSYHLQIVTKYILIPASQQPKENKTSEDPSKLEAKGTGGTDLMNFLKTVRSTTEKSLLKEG
# Measurement Description: Kynurenine assay in IFN-γ-stimulated Hela cells
# Assay type: cell-based
# Condition Description: 20 h, read-out: Hela Kyurenine (IC50)
Measure Name: pIC50
Give bare numbers, as −log10 of the molar value.

Given Smiles: Cc1cccc(NC(=O)Nc2cc(-c3ccc(C(=O)O)cc3)ccc2Oc2ccccc2C(C)(C)C)c1
pIC50: 6.11

Please go through the list and note pIC50 for each compound.
1. COc1ccccc1Oc1ccc(-c2ccc(OC)c(C(=O)O)c2)cc1NC(=O)Nc1ccc(C)cc1
2. COc1ccc(-c2ccc(Oc3ccccc3C(C)(C)C)c(NC(=O)Nc3cccc(Cl)c3C)c2)cc1C(=O)O
3. CCc1ccccc1Oc1ccc(-c2ccc(OC)c(C(=O)O)c2)cc1NC(=O)Nc1ccccc1Cl

Reply:
1. 5.68
2. 6.80
3. 6.96
